IC50 listing for selected compounds.
Test system: Vero
testProtocol: Cytotoxicity against Chlorocebus aethiops (African green monkey) Vero cells after 72 hr by MTT assay
Type: cell-based
conditionDescription: Chlorocebus sabaeus
# unit: µM | format: bare number

Examples with answers:
{"givenSmiles": "COc1ccc(-c2c(-c3ccc(SC)cc3)nc3sc(-c4ccc(F)cc4)nn23)cc1", "measurementTarget": "Vero", "unitName": "µM", "observedMeasurement": 116}
{"givenSmiles": "COc1ccc(-c2nn3c(-c4ccc(OC)cc4)c(-c4ccc(OC)cc4)nc3s2)cc1", "measurementTarget": "Vero", "unitName": "µM", "observedMeasurement": 162}

Kindly consider the entry below.
Recorded IC50 for COc1ccc(-c2nc3sc(C(F)(F)F)nn3c2-c2ccc(OC)cc2)cc1 , please?
147

---

Test system: Vero
testProtocol: Cytotoxicity against Chlorocebus aethiops (African green monkey) Vero cells after 72 hr by MTT assay
Format: cell-based
conditionDescription: Chlorocebus sabaeus
observable: pIC50
When answering, recall that pIC50 equals minus log10 of the concentration in mol/L, and write that number alone.

Known pIC50 results, listed for orientation:
{"givenSmiles": "COc1ccc(-c2nc3sc(-c4ccc(F)cc4)nn3c2-c2ccc(OC)cc2)cc1", "pIC50": 3.79}
{"givenSmiles": "COc1ccc(-c2c(-c3ccc(SC)cc3)nc3sc(S(N)(=O)=O)nn23)cc1", "pIC50": 3.67}
{"givenSmiles": "COc1ccc(-c2nn3c(-c4ccc(OC)cc4)c(-c4ccc(SC)cc4)nc3s2)cc1", "pIC50": 3.92}
{"givenSmiles": "CSc1ccc(-c2nc3sc(C(F)(F)F)nn3c2-c2ccccc2)cc1", "pIC50": 3.86}

Please state recorded pIC50 (tested on Vero) of COc1ccc(-c2c(-c3ccccc3)nc3sc(S(N)(=O)=O)nn23)cc1
3.69

Same again, this time with COc1ccc(-c2c(-c3ccc(SC)cc3)nc3sc(C(F)(F)F)nn23)cc1
3.91

---

Tested on: Vero
testProtocol: Cytotoxicity against Chlorocebus aethiops (African green monkey) Vero cells after 72 hr by MTT assay
Type: cell-based
conditionDescription: Chlorocebus sabaeus
Known IC50 of a selection of compounds
Report as a plain number; the unit µM is understood.

Worked examples, 3 compounds total:
{"givenSmiles": "COc1ccc(-c2nc3sc(S(N)(=O)=O)nn3c2-c2ccc(OC)cc2)cc1", "unitName": "µM", "observedMeasurement": 247}
{"givenSmiles": "Cc1ccc(-c2nc3sc(S(N)(=O)=O)nn3c2-c2ccccc2)cc1", "unitName": "µM", "observedMeasurement": 168}
{"givenSmiles": "CSc1ccc(-c2nc3sc(S(N)(=O)=O)nn3c2-c2ccccc2)cc1", "unitName": "µM", "observedMeasurement": 192}

What value of IC50 has been reported for the following compound? COc1ccc(-c2nn3c(-c4ccccc4)c(-c4ccc(SC)cc4)nc3s2)cc1
135
